Test: physchem
Conditions: water, thermodynamic from solid
measurement.kind: solubility at 1 hr (µg/mL)

molecule	quantitative.result
CC(C)(Oc1ccc(C(=O)c2ccc(Cl)cc2)cc1)C(=O)O [Fenofibric acid]	165
